assay: in vitro; conditions: Beagle, dog, plasma

{"Structure notation": "CC(C)(N)C(=O)N[C@H](COCc1ccccc1)C(=O)N1CCC2(CC1)CN(S(C)(=O)=O)c1ccccc12", "fraction unbound at 5 h": 0.212}
{"Structure notation": "O=C(Nc1ccccc1F)N[C@H]1N=C(c2ccccc2)c2ccccc2NC1=O", "fraction unbound at 5 h": 0.0307}
{"Structure notation": "Cc1cc(F)ccc1Oc1cccc2c(=O)cc(N3CCOCC3)[nH]c12", "fraction unbound at 5 h": 0.0088}
{"Structure notation": "Cc1cc(Nc2nc(N[C@@H](C)c3ccc(F)cn3)c(C#N)nc2C)n[nH]1", "fraction unbound at 5 h": 0.262}
{"Structure notation": "CCN(CC)CCN1C(=O)[C@@](O)(c2ccccc2Cl)c2c1cc(C(N)=O)cc2C(F)(F)F", "fraction unbound at 5 h": 0.19}
